Recorded values, source the DeepSol protein solubility set.

measurement_notes: soluble on expression in E. coli; label from the status in PepcDB or PDB records

{"record_sequence": "MKRLIGILLCNLFILTACSASVDKTSNSTKTTDYKIENGETLKVPEKPKRVAVLTGFYVGDFIKLGIKPIAVSDITKDSSILKPYLKGVDYIGENDVERVAKAKPDLIVVDAMDKNIKKYQKIAPTIPYTYNKYNHKEILKEIGKLTNNEDKAKKWIEEWDDKTRKDKKEIQSKIGQATASVFEPDEKQIYIYNSTWGRGLDIVHDAFGMPMTKQYKDKLQEDKKGYASISKENISKYAGDYIFLSKPSYGKFDFEKTHTWQNIEAVKKGHVISYKAEDYWFTDPITLEHLRSKLKKEILNKK", "soluble on expression in E. coli": "not soluble"}
{"record_sequence": "MGSDKIHHHHHHMDFMTALDIGASALSAERTSMNITSMNLANAKTTRTIGGGPYRRKAVVMAATEVDDPFSKHMQSALDRELRGVRVQHIVRDNRPFRQVYEPGHPDADANGYVKYPDINVVEEMANLMTSQRGYQASVSTIEAVKSMYTKALEIGRS", "soluble on expression in E. coli": "not soluble"}
